Data provenance: ChEMBL document CHEMBL3407349

- experiment: Half life in mouse liver microsomes
- measurement conditions: microsomes
endpoint name: half-life (min)

Solved cases (2 shown):
**Query** If you can, please state the reported half-life value of "COc1ccc2c(c1)[C@]1(C[C@H]1c1ccc3c(/C=C/c4ccc(CN5C[C@@H](C)O[C@@H](C)C5)cc4)n[nH]c3c1)C(=O)N2C" .
**Result** 10

**Query** If you can, please state the reported half-life value of "COc1ccc2c(c1)[C@]1(C[C@H]1c1ccc3c(/C=C/c4ccc(CN5CCOCC5)cc4)n[nH]c3c1)C(=O)N2C" .
**Result** 24

a. CN(C)Cc1ccc(/C=C/c2n[nH]c3cc([C@@H]4C[C@@]45C(=O)N(C)c4ccccc45)ccc23)cc1
b. COc1ccc2c(c1)[C@]1(C[C@H]1c1ccc3c(/C=C/c4ccc([C@H](C)N5CCOCC5)cc4)n[nH]c3c1)C(=O)N2C
c. O=C1Nc2ccccc2[C@]12C[C@H]2c1ccc2c(/C=C/c3ccc(N4CCNCC4)cc3)n[nH]c2c1
**Query** Sort by half-life, descending. # the answer lists labels in the order requested
**Result** c, a, b
(c: 19 min, a: 12 min, b: 7.2 min)
